Assay: clinical
Details: human, in vivo, iv
Structures can show the parent of a compound that is named as a salt.
Readout: Cmax (ng/mL)

Molecule: Cc1cccc([C@H](C)c2cnc[nH]2)c1C [Dexmedetomidine hydrochloride]
Readout: Cmax
Data value: 0.022
